Source: ChEMBL document CHEMBL2034911

# System: PC-12
# Assay procedure: Neuroprotective activity in rat PC12 cells assessed as inhibition of amyloid beta(25 to 35)-induced cell death at 10 uM incubated 48 hrs […] by MTT assay
# Type: functional, cell-based
Calls of active or inactive are those of the source. The rule behind the calls is not given here.

| Mol smiles | Activity |
| --- | --- |
| COc1c2c(cc3c1[nH]c1ccccc13)C(=O)C[C@@H]2O | inactive |
| COc1ccc2[nH]c3c(O)cc(C=O)cc3c2c1 | inactive |
| COc1c2c(cc3c1[nH]c1ccccc13)[C@H]1O[C@@H]([C@H]2O)C(C)(C)O1 | inactive |
| COc1ccc2[nH]c3ccc(C=O)cc3c2c1 | inactive |
| O=Cc1ccc2[nH]c3ccccc3c2c1 | inactive |
| COc1c2c(cc3c1[nH]c1ccccc13)C(=O)C(=C(C)C)C2 | inactive |
| COC(=O)c1ccc2[nH]c3ccc(OC)cc3c2c1 | inactive |
| COc1c2c(cc3c1[nH]c1ccccc13)C(=O)O[C@@H]2[C@H](O)C(C)(C)O | inactive |
| COc1cc2c(cc1O)[nH]c1c(CC=C(C)C)c(O)c(C=O)cc12 | Active |
| COc1cc(C=O)cc2c1[nH]c1ccccc12 | Active |
| CC(C)=CCc1c(C=O)cc(O)c2[nH]c3ccccc3c12 | inactive |
| COc1cc2c(cc1O)[nH]c1cc(O)c(C=O)cc12 | Active |
| COc1c2c(cc3c1[nH]c1ccccc13)[C@H]1O[C@@H](C2)C(C)(C)O1 | Active |
| COc1ccc2[nH]c3c4c(c(C=O)cc3c2c1)OC(C)(C)C=C4 | inactive |
| COc1c2c(cc3c1[nH]c1ccccc13)C(=O)O[C@H](C(C)(C)O)[C@H]2O | inactive |
| CC(C)=CCc1c(C=O)cc2c([nH]c3ccccc32)c1O | Active |
| COc1ccc2[nH]c3cc(OC)c(C=O)cc3c2c1 | inactive |
